The measured values listed here are drawn from ChEMBL document CHEMBL1671689.

Test system: Streptococcus pneumoniae
Experimental Protocol: Antimicrobial activity against Streptococcus pneumoniae serotype 11A by broth microdilution method
Format: functional
Endpoint: MIC

Query (compound): COc1c(N2C[C@@H]3CCCN[C@@H]3C2)c(F)cc2c(=O)c(C(=O)O)cn(C3CC3)c12 ; field requested: MIC
≤ 0.5 µg/mL

Need MIC, item CC1(C)S[C@@H]2[C@H](NC(=O)COc3ccccc3)C(=O)N2[C@H]1C(=O)O
≤ 0.03 µg/mL

Data request, read-out MIC, for CC1(C)S[C@@H]2[C@H](NC(=O)Cc3ccccc3)C(=O)N2[C@H]1C(=O)O
≤ 0.03 µg/mL

Item C[C@@H](O)[C@H]1C(=O)N2C(C(=O)O)=C(SCCNC=N)C[C@H]12 [IMIPENEM ANHYDROUS] has what recorded MIC?
≤ 0.12 µg/mL

Which MIC is listed for CO/N=C(\C(=O)N[C@@H]1C(=O)N2C(C(=O)O)=C(CSc3nc(=O)c(O)nn3C)CS[C@H]12)c1csc(N)n1 ?
≤ 0.25 µg/mL

Value lookup for MIC; key = CO/N=C(\C(=O)N[C@@H]1C(=O)N2C(C(=O)O)=C(COC(N)=O)CS[C@H]12)c1ccco1
≤ 1 µg/mL

Query: MIC; subject: CN[C@H](CC(C)C)C(=O)N[C@H]1C(=O)N[C@@H](CC(N)=O)C(=O)N[C@H]2C(=O)N[C@H]3C(=O)N[C@H](C(=O)N[C@H](C(=O)O)c4cc(O)cc(O)c4-c4cc3ccc4O)[C@H](O)c3ccc(c(Cl)c3)Oc3cc2cc(c3O[C@@H]2O[C@H](CO)[C@@H](O)[C@H](O)[C@H]2O[C@H]2C[C@](C)(N)[C@H](O)[C@H](C)O2)Oc2ccc(cc2Cl)[C@H]1O
≤ 1 µg/mL

###

Would you kindly list MIC50 for each of these molecules?
System: Streptococcus pneumoniae
Experimental Protocol: Antimicrobial activity against multiple drug resistant Streptococcus pneumoniae serotype 19F by broth microdilution method
Type: functional

Please look up its MIC50: CCO/N=C(\C(=O)N[C@@H]1C(=O)N2C(C(=O)[O-])=C(Sc3nc(-c4cc[n+](C)cc4)cs3)CS[C@H]12)c1nsc(NP(=O)(O)O)n1 [CEFTAROLINE FOSAMIL]
0.25 µg/mL

Name the reported MIC50 value associated with the molecule CO/N=C(\C(=O)N[C@@H]1C(=O)N2C(C(=O)O)=C(CSc3nc(=O)c(O)nn3C)CS[C@H]12)c1csc(N)n1 [CEFTRIAXONE]
2 µg/mL

Recorded MIC50 for CC[C@H]1OC(=O)[C@H](C)[C@@H](O[C@H]2C[C@@](C)(OC)[C@@H](O)[C@H](C)O2)[C@H](C)[C@@H](O[C@@H]2O[C@H](C)C[C@H](N(C)C)[C@H]2O)[C@](C)(O)C[C@@H](C)C(=O)[C@H](C)[C@@H](O)[C@]1(C)O [ERYTHROMYCIN] , please?
> 8 µg/mL

MIC50 lookup needed for CO/N=C(\C(=O)N[C@@H]1C(=O)N2C(C(=O)O)=C(COC(N)=O)CS[C@H]12)c1ccco1 [CEFUROXIME] , thanks.
8 µg/mL

Which MIC50 reading was recorded for the molecule C[C@@H](O)[C@H]1C(=O)N2C(C(=O)O)=C(SCCNC=N)C[C@H]12 [IMIPENEM ANHYDROUS] ?
1 µg/mL

Given the entry CC1(C)S[C@@H]2[C@H](NC(=O)COc3ccccc3)C(=O)N2[C@H]1C(=O)O [PENICILLIN V] , report its measured MIC50.
4 µg/mL

Consider the molecule CC(=O)NC[C@H]1CN(c2ccc(N3CCOCC3)c(F)c2)C(=O)O1 [LINEZOLID] and give its measured MIC50.
0.5 µg/mL
